# STUDY TARGET: wild-type hCAII protein (Homo sapiens, UniProt P00918)
QUANTITY: IC50 (nM)
Number in nM, nothing else.

Incoming: Record NS(=O)(=O)c1ccc(C(=O)O)nc1 : what is its IC50 with wild-type hCAII protein (Homo sapiens, UniProt P00918)?
Outgoing: 992

* * *

# STUDY TARGET: wild-type hCAII protein (Homo sapiens)
# ASSAY TEXT: colorimetric IC50 assay of NTMs and NTM-AAEIR peptides
# Assay type: biochemical
# MEASUREMENT CONTEXT: relative to NTM M64; NTM on AAEIR
# Procedure: The colorimetric assay used 300 nM of wild-type carbonic anhydrase incubated in 45 μL of 50 mM MOPS (pH 7.5), 33 mM Na2SO4, and 1 mM EDTA aliquoted into a 96-well, clear, flat-bottom plate. To each column of the plate, a 1/10 dilution series from 1 mM to 0.1 nM of each NTM was added and incubated at 25° C. for 10 minutes to reach binding equilibrium. […] The initial rate of hydrolysis was observed over the first 60 seconds. […]
Note to self: Fold Enhancement (NTM-AAEIR IC50) under 2 means satisfied, ties and anything higher get not satisfied.

Incoming: A record lists NS(=O)(=O)c1ccc(C(=O)O)cc1F . Is its Fold Enhancement (NTM-AAEIR IC50) below 2?
Outgoing: satisfied

Incoming: A record lists NS(=O)(=O)c1ccc(C(=O)O)c(F)c1 . Is its Fold Enhancement (NTM-AAEIR IC50) below 2?
Outgoing: not satisfied

Incoming: A record lists NS(=O)(=O)c1ccc(C(=O)O)cn1 . Is its Fold Enhancement (NTM-AAEIR IC50) below 2?
Outgoing: satisfied

# input for lookup
Incoming: A record lists NS(=O)(=O)c1ccc(C(=O)O)c(Cl)c1 . Is its Fold Enhancement (NTM-AAEIR IC50) below 2?
Outgoing: satisfied

* * *

# STUDY TARGET: wild-type hCAII protein (Homo sapiens)
# ASSAY TEXT: colorimetric IC50 assay of NTMs and NTM-AAEIR peptides
# Format: biochemical
# MEASUREMENT CONTEXT: relative to NTM M64
# Experimental: The colorimetric assay used 300 nM of wild-type carbonic anhydrase incubated in 45 μL of 50 mM MOPS (pH 7.5), 33 mM Na2SO4, and 1 mM EDTA aliquoted into a 96-well, clear, flat-bottom plate. To each column of the plate, a 1/10 dilution series from 1 mM to 0.1 nM of each NTM was added and incubated at 25° C. for 10 minutes to reach binding equilibrium. […] The initial rate of hydrolysis was observed over the first 60 seconds. […]
Note to self: Fold Enhancement (NTM IC50) under 2 means T, ties and anything higher get F.

Incoming: A record lists NS(=O)(=O)c1ccc(C(=O)O)nc1 . Is its Fold Enhancement (NTM IC50) below 2?
Outgoing: T

Incoming: A record lists Cc1cc(S(N)(=O)=O)ccc1C(=O)O . Is its Fold Enhancement (NTM IC50) below 2?
Outgoing: T

Incoming: A record lists NS(=O)(=O)c1ccc(C(=O)O)c([N+](=O)[O-])c1 . Is its Fold Enhancement (NTM IC50) below 2?
Outgoing: F

Incoming: A record lists COc1cc(S(N)(=O)=O)ccc1C(=O)O . Is its Fold Enhancement (NTM IC50) below 2?
Outgoing: T

Incoming: A record lists NS(=O)(=O)c1ccc(C(=O)O)c(F)c1 . Is its Fold Enhancement (NTM IC50) below 2?
Outgoing: F

Further cases:
Incoming: A record lists NS(=O)(=O)c1ccc(C(=O)O)cn1 . Is its Fold Enhancement (NTM IC50) below 2?
Outgoing: F

Incoming: A record lists NS(=O)(=O)c1ccc(C(=O)O)cc1F . Is its Fold Enhancement (NTM IC50) below 2?
Outgoing: F

Incoming: A record lists Nc1cc(S(N)(=O)=O)ccc1C(=O)O . Is its Fold Enhancement (NTM IC50) below 2?
Outgoing: T

Incoming: A record lists NS(=O)(=O)c1ccc(C(=O)O)c(Cl)c1 . Is its Fold Enhancement (NTM IC50) below 2?
Outgoing: F
